Hi there, I'd appreciate the recorded ka for every entry that follows.
System: Macaca fascicularis PRLR (mfPRLR.mmh; SEQ ID NO:403)
Sequence (as listed by the source): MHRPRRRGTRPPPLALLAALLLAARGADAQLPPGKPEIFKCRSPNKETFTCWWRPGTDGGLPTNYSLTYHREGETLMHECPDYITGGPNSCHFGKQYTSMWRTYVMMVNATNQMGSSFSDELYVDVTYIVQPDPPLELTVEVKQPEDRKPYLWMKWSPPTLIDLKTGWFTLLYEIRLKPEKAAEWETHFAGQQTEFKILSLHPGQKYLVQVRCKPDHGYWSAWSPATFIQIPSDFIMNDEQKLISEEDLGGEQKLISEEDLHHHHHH
Test: Surface plasmon resonance (Biacore T200), antibody-capture format
Assay type: binding
Settings: 37° C., analyte mfPRLR.mmh
Procedure: Antibodies, expressed as human IgG1 Fc (i.e., “H1H” designations), were captured onto an anti-human Fc sensor surface (mAb-capture format), and soluble monomeric (hPRLR.mmh; SEQ ID NO:401, or Macaca fascicularis (mf) PRLR.mmh; SEQ ID NO:403) or dimeric (hPRLR.mFc; SEQ ID NO:402) PRLR protein was injected over the sensor surface. Measurements were conducted on a T200 Biacore instrument. […]
Numbers only, in M/s.

// lookup ka for H1H6803P: fully human anti-PRLR antibody, human IgG1 Fc; HCVR/LCVR SEQ ID NOs 226/234 (antibody, V domains shown) VH: EVQLVESGGGVVRPGGSLRLSCAASGFKFDDYGMTWVRHVPGKGLEWVSGINWNGGRTGYTDSVKGRFTISRDNAKNSLYLQMNSLRAEDTALYHCAGARRDAFDIWGQGTMVTVSS VL: DIQMTQSPSSLSASIGDRVTITCRASQNIIKYLNWYQQNAGKAPKLLIYTASSLQSGVPSRFSGSGSGTDFTLTISSLQPEDFATYYCQQSSSSPYTFGQGTKLEIK
87300

Next molecule: H1H6790P: fully human anti-PRLR antibody, human IgG1 Fc; HCVR/LCVR SEQ ID NOs 114/122 (antibody, V domains shown) VH: EVQLVESGGGLVQPGGSLRLSCAASGFTFSSYAMTWVRQAPGKGLEWVSAITGSVGNTYYADSVKGRFTISRDNSKNTLYLQMNSLGAEDTAEYYCAKGAGMTTNWYLDLWGRGTLVTVSS VL: DIVMTQSPDSLAVSLGARATINCKSSQSVLYSSNNQNYLTWYQQKPGQPPKLLIKWASTRESGVPDRFSGSGSGTDFTLTISSLQAEDVAVYYCQQYASSPYTFGQGTKLEIK
615000

Next molecule: H1H6959N2: anti-PRLR antibody, human IgG1 Fc form of H2M6959N2 of Table 1; HCVR/LCVR SEQ ID NOs 306/314 (antibody, V domains shown) VH: EVQLVESGGGLVQPGRSLRLSCAASGFTFDDYAMHWVRQAPGKGLEWVSGISWHSGIIGYADSVKGRFTISRDNAKNSLYLQMNSLRTEDAALYYCAKIGSYFYFDSWGQGTLVTVSS VL: EIVLTQSPGTLSLSPGERATLSCRASQSVSSNYLAWYQQKPGQAPRLLIYGASSRATGIPDRFSGSGSGTDFTLTISRLEPEDFAVYYCQQFGSSGYTFGQGTNLEIK
44600

Would you kindly look at the next entry?
// lookup ka for H1H6967N: anti-PRLR antibody, human IgG1 Fc form of H2M6967N of Table 1; HCVR/LCVR SEQ ID NOs 354/362 (antibody, V domains shown, human IgG1 Fc) VH: EVQLVESGGDLVHPGRSLRLSCAASGFPFDEYAMHWVRQVPGKGLEWVSGISWSNNNIGYADSVKGRFTISRDNAKNSLYLQMNSLRPEDTAFYYCAKSGIFDSWGQGTLVTVSS VL: EIVMTQSPATLSVSPGERATLSCRASQSVSRDLAWYQQKPGQAPRLLIHGASTRATGIPARFSGSGSGAEFTLIISSLQSEDFAVYYCQQYNNWPLTFGGGTKVEIK
356000
